Examples of compounds with documented pKd follow.
System Under Test: hCNT3 (full-length wild-type) (Homo sapiens)
Construct: full-length, C-terminal Strep-tag, codon-optimized cDNA, baculovirus/Sf9 expression, purified in DDM, homotrimer
Sequence (Q9HAS3 whole entry): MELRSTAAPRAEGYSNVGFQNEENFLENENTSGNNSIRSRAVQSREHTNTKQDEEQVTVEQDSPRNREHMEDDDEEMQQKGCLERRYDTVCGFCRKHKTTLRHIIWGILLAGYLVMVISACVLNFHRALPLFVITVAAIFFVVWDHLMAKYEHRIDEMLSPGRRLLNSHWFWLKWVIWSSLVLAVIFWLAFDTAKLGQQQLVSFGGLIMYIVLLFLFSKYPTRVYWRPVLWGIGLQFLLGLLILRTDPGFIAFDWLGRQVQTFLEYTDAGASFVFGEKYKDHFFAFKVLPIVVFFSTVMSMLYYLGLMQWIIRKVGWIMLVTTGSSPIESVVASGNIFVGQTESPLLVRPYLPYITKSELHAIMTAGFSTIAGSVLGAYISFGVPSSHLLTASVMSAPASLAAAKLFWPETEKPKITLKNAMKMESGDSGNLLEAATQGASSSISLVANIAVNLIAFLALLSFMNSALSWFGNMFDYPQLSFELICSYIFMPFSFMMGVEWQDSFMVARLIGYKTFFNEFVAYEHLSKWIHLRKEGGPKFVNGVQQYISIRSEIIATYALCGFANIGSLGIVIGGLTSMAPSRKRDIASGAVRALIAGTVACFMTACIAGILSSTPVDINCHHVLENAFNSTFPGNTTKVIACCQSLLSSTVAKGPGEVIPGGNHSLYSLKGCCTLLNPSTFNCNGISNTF
Test Description: isothermal titration calorimetry, one-site model
Measurement Conditions: read-out: binding affinity
pKd: −log10 of the molar value.
Metric Name: pKd

[[record]]
given_smiles = "O=c1ccn([C@@H]2O[C@H](CO)[C@@H](O)[C@H]2O)c(=O)[nH]1"
observed = "~3.49"

[[record]]
given_smiles = "Cc1cn([C@H]2C[C@H](O)[C@@H](CO)O2)c(=O)[nH]c1=O"
observed = "~3.22"

[[record]]
given_smiles = "Nc1ccn([C@@H]2O[C@H](CO)[C@@H](O)[C@H]2O)c(=O)n1"
observed = "~3.59"


* * *

System Under Test: CNT3ins (Δ1–69) (Homo sapiens)
Construct: gene SLC28A3; lacks the 69 N-terminal residues, C-terminal Strep-tag, baculovirus/Sf9 expression, purified in DDM for ITC, homotrimer
Sequence (Q9HAS3 70-691, stated change not applied): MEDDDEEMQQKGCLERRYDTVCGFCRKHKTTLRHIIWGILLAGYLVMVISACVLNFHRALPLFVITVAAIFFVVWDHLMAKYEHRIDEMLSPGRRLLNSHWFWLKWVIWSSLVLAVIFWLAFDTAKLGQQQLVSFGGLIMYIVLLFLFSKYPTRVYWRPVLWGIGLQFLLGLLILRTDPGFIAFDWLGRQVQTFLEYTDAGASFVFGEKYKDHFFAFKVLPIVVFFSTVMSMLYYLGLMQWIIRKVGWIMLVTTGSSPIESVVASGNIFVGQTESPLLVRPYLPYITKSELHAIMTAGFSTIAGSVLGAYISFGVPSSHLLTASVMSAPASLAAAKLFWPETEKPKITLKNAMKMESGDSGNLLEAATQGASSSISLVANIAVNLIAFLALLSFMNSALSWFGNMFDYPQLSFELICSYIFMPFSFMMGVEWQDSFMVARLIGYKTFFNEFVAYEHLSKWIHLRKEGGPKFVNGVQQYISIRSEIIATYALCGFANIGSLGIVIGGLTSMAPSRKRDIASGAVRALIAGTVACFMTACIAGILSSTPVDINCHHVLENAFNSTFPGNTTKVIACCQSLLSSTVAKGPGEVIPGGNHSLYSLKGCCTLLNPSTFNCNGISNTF
Test Description: isothermal titration calorimetry, one-site model
Measurement Conditions: read-out: binding affinity
pKd: −log10 of the molar value.
Metric Name: pKd

[[record]]
compound = "O=c1ccn([C@@H]2O[C@H](CO)[C@@H](O)[C@H]2O)c(=O)[nH]1 [uridine]"
observed = "~3.43"

